Attribution: paper PMC8003627

- test system: p38α MAP kinase (Homo sapiens)
- Sequence (Q16539 whole entry): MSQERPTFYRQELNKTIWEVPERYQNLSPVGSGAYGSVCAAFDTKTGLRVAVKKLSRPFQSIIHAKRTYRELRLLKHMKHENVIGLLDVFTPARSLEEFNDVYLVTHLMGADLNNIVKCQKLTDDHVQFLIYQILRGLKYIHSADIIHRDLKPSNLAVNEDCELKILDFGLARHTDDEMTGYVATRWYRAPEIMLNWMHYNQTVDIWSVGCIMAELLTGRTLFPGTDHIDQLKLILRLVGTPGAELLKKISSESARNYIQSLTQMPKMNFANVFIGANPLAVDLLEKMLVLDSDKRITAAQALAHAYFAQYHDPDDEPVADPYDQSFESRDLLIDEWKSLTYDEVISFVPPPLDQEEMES
- assay overview: p38α MAP kinase inhibition assay (non radioactive immunosorbent enzyme assay, ATF-2 phosphorylation; Ultra Glo Promega kit)
- Assay type: biochemical
- condition set: mean of four separated experiments; compounds assayed at 10^−4 to 10^−8 M
measurement label: IC50
Output should be the measured figure followed by the unit it is expressed in.

| molecule | result value |
| --- | --- |
| O=C1ON(Cc2ccccc2)C(c2ccccc2)N1c1ccc(F)cc1 (centres unmarked) [Compound 3g] | 15.1 µM |

Please list IC50 recorded for the molecule O=C1ON(Cc2ccccc2)C(c2ccncc2)N1c1ccc(F)cc1 (centres unmarked) [Compound 3e]
0.08 µM
